B1: Steroid hormone receptor ERR2, residues 100 to 176; numbered along this chain, O95718 (parent)
chain: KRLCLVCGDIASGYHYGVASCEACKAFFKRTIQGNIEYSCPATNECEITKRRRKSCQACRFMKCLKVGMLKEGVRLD

- Variants of: B1
- Method Description: abundance fitness (aPCA) (normalised: wild type 0, dead -1); higher = more abundant; growth selection in yeast, the domain comes from the species named
- Experimental Parameters: Homo sapiens
Measurement Kind: abundance fitness

• KRLCLVCGDIASGYHYGVASCEACKAFFKRTIQGNIEYSCPATNECEITKRRRKNCQACRFMKCLKVGMLKEGVRLD = 0.405
• KRLCLVCGDIASGYHYGVASCEACKAFFKRTIQGNIEYSCPATNECEITKRARKSCQACRFMKCLKVGMLKEGVRLD = -0.037
• KRLCLVCGDIASGYHYGVASCEACKAFFKRTIQGNIEYSCPAYNECEITKRRRKSCQACRFMKCLKVGMLKEGVRLD = -0.252
• KRLCLVCGDIASGYHYGVASCEACKAFFKRTIQGNIEYSCPAPNECEITKRRRKSCQACRFMKCLKVGMLKEGVRLD = -0.393
• KRLCLVCGDIASGYHYGVACCEACKAFFKRTIQGNIEYSCPATNECEITKRRRKSCQACRFMKCLKVGMLKEGVRLD = 0.414
• KRLCLVCGDIASGYHYEVASCEACKAFFKRTIQGNIEYSCPATNECEITKRRRKSCQACRFMKCLKVGMLKEGVRLD = -0.027
• KRLCLVCGDIASGYHYGVASCEACKAFFKRTIQGNIEYSCPATNECEITKRRRKSCQACRFGKCLKVGMLKEGVRLD = -0.059
• KRLCLVCGDIASGYHYGVPSCEACKAFFKRTIQGNIEYSCPATNECEITKRRRKSCQACRFMKCLKVGMLKEGVRLD = -0.065
• KRLWLVCGDIASGYHYGVASCEACKAFFKRTIQGNIEYSCPATNECEITKRRRKSCQACRFMKCLKVGMLKEGVRLD = -0.934
• KRLCLVCGDIASGYHYGVASCEACKAFFKRAIQGNIEYSCPATNECEITKRRRKSCQACRFMKCLKVGMLKEGVRLD = -0.353
• KRLCLVCGDIASGYHYGVASCEACKAFFKRTIQGNIEYSMPATNECEITKRRRKSCQACRFMKCLKVGMLKEGVRLD = -0.742
